Data origin: patent US20260035432A1

Recorded pKd for the following binders
- test system: T1, Extracellular domain (ECD) of ROR1 fused to human Fc region (UniProt Q01973 30-406, limits assumed)
- T1 construct: extracellular domain; also called ROR1-Fc; ROR1-FC; not shown: human Fc region
- T1 sequence (Q01973 30-406 limits assumed): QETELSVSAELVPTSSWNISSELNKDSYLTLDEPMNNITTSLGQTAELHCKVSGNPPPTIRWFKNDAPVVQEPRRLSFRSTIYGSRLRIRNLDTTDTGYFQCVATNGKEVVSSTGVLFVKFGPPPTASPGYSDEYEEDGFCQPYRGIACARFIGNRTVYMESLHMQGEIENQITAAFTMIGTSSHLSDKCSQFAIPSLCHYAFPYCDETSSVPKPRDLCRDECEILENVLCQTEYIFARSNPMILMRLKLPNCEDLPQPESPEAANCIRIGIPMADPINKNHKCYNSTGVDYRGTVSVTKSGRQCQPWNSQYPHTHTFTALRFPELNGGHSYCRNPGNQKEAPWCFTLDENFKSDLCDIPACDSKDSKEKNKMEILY
- method description: SPR, Biacore 3000; ROR1 ECD-human Fc on CM5 chip, antibody in solution
pKd: −log10 of the molar value.

- binder: "Clone 04 (antibody, V domains shown, Variable regions fused to mouse constant regions (chimeric mouse IgG1 mAb) for SPR; also called hROR1 VH_04 / hROR1 VL_04) VH: EVQLVESGGGLVQPGGSLRLSCAASGFTFSSYAMSWVRQAPGKGLEWVSAISRGGTTYYADSVKGRFTISRDNSKNTLYLQMNSLRAEDTAVYYCGRYDYDGYYAMDYWGQGTLVTVSS VL: DIQMTQSPSSLSASVGDRVTITCQASPDINSYLNWYQQKPGKAPKLLIYRANNLETGVPSRFSGSGSGTDFTLTISSLQPEDIATYYCLQYDEFPYTFGQGTKLEIK"
  assay endpoint: "pKd"
  result: "~7.26"
- binder: "Clone 07 (antibody, V domains shown, Variable regions fused to mouse constant regions (chimeric mouse IgG1 mAb) for SPR; also called hROR1 VH_07 / hROR1 VL_07) VH: EVQLVESGGGLVQPGGSLRLSCAASGFTFSSYAIIWVRQAPGKGLEWVARISRGGTTRYADSVKGRFTISADTSKETAYLQMNSLRAEDTAVYYCGRYDYDGYYAMDYWGQGTLVTVSS VL: DIQMTQSPSSLSASVGDRVTITCRASPDINSYVAWYQQKPGKAPKLLIYRANFLESGVPSRFSGSRSGTDFTLTISSLQPEDFATYYCLQYDEFPYTFGQGTKVEIK"
  assay endpoint: "pKd"
  result: "~7.05"

The reported value for Hum ROR1_07VH_(G4S)3x_VL_16 (antibody, mouse IgG1, V domains shown, The name reads as an scFv with a (G4S)3 linker; The method text says variable regions were fused to mouse constant regions (chimeric mouse IgG1); VH/VL are tied by the numbers in the name) VH: EVQLVESGGGLVQPGGSLRLSCAASGFTFSSYAIIWVRQAPGKGLEWVARISRGGTTRYADSVKGRFTISADTSKETAYLQMNSLRAEDTAVYYCGRYDYDGYYAMDYWGQGTLVTVSS VL: DIQMTQSPSSLSASVGDRVTITCKASPDINSYLNWYQQKPGKAPKVLIYRANRLVDGVPSRFSGSGSGTDYTLTISSLQPEDFATYYCLQYDEFPYTFGQGTKVEIK in terms of pKd is 8.39
